Exercise: state measured inhibition for each of the compounds provided.
- SYSTEM NAME: Sulfhydryl oxidase 1 (Homo sapiens) (UniProt O00391)
- Sequence (O00391 whole entry, looked up): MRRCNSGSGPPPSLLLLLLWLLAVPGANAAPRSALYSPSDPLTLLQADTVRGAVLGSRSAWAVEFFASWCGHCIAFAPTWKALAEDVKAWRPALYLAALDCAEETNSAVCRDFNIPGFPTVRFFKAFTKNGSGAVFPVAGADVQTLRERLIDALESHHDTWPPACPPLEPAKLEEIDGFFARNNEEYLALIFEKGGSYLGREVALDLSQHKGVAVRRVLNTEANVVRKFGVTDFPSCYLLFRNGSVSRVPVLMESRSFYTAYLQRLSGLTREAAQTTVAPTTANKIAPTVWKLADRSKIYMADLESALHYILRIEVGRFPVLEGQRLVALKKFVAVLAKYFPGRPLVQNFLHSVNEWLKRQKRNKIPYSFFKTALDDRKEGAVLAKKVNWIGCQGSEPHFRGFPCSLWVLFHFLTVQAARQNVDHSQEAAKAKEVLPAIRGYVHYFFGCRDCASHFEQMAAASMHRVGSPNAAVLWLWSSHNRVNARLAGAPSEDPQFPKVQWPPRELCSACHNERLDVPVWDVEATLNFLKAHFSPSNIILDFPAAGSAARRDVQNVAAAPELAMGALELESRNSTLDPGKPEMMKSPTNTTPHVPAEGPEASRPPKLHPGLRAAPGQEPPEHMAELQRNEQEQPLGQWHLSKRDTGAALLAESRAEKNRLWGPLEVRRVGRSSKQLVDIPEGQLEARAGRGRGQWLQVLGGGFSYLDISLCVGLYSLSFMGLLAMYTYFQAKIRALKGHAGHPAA
- TEST: QSOX1 enzyme inhibitors, primary screen, biochemical, ROS-Glo H2O2 luminescence, HTS (AID 1347418)
- RUN CONDITIONS: recombinant QSOX1, ROS-Glo H2O2 luminescence; at 12.5 µM; active compounds read high; active = any value above zero
Out of some 1,300 compounds screened, about 750 (58%) were called active. The list shows a part of the results.

COMPOUND	PROPERTY	ENDPOINT VALUE
Nc1ncnc2c1c(-c1ccc(Oc3ccccc3)cc1)cn2C1CCCC1	inhibition	-2.9% (inactive)
C=CCn1c(=O)c2c(nc(-c3ccc(S(=O)(=O)O)cc3)n2C)n(C)c1=O	inhibition	-0.9% (inactive)

// input: 4 compounds below; output: inhibition for each
1. NC(=O)NO
2. NC(=NCc1ccccc1)NC(=O)c1nc(Cl)c(N)nc1N
3. COc1ccc(C2CNC(=O)C2)cc1OC1CCCC1 (configuration not stated)
4. CCN(CC)CCOC(=O)c1cc(Cl)c(N)cc1OC

-13.4% (inactive)
4.4% (active)
-7.5% (inactive)
-5.7% (inactive)

For every listed record, write down its inhibition.
1. NC1(C(=O)O)CC1
2. COC1(C2=NCCN2)COc2ccccc2O1 (configuration not stated)
3. OCC1O[C@H]([S-])[C@@H](O)C(O)[C@@H]1O.[Au+] (some centres not stated)
4. O=C(O)CCCCCCCC(=O)O
5. O=C1NCC2(CCN(CCc3ccccc3)CC2)O1
6. CC(=O)C(C)=O
7. Nc1ncnc2c1ncn2C1CCCC1

1: 5.5% (active); 2: 3.2% (active); 3: 2.4% (active); 4: -1.7% (inactive); 5: -1% (inactive); 6: 2.1% (active); 7: -9.6% (inactive)

Batch request: inhibition per item, same order as input.
1. C[C@@H](O)[C@H]1C(=O)N2C(C(=O)O)=C(SCCN=CN)C[C@H]12
2. O=C1/C(=C/c2ccsc2)CC/C1=C\c1cccs1
3. CC(N)=O
4. COC(=O)C1=C(C)NC(C)=C([N+](=O)[O-])C1c1ccccc1C(F)(F)F (configuration not stated)
5. NC1(C(=O)O)CCCCC1
6. C[C@H](NC(CCc1ccccc1)C(=O)O)C(=O)N1CCC[C@H]1C(=O)O (some centres not stated)

1. -5.2% (inactive)
2. 3.3% (active)
3. 4.6% (active)
4. -3.4% (inactive)
5. -3.9% (inactive)
6. -2.6% (inactive)

###

- SYSTEM NAME: Sulfhydryl oxidase 1 (Homo sapiens)
- TEST: QSOX1 enzyme inhibitors, primary screen, biochemical, ROS-Glo H2O2 luminescence, HTS (AID 1347418)
- RUN CONDITIONS: recombinant QSOX1, ROS-Glo H2O2 luminescence; at 12.5 µM; active compounds read high; active = any value above zero
Out of some 1,300 compounds screened, about 750 (58%) were called active. The list shows a part of the results.
PROPERTY: inhibition (%)
Give bare numbers, in %.

# example entries with known answers
COMPOUND	SYSTEM NAME	UNIT OF MEASURE	inhibition
O=C(Nc1nc2ccccc2n1CCN1CCOCC1)c1cccc([N+](=O)[O-])c1	Sulfhydryl oxidase 1 (Homo sapiens)	%	0.4
OC[C@H]1O[C@@H](n2cnc3c(NC4CCCC4)ncnc32)C(O)[C@H]1O (stereo partly specified)	Sulfhydryl oxidase 1 (Homo sapiens)	%	0.7
CCCCCCCCCCC/C=C\C(C)(C)/C=C\CCCC(=O)O	Sulfhydryl oxidase 1 (Homo sapiens)	%	9.1
CC(C)(C)NCC(O)c1cc(O)cc(O)c1 (stereo unspecified)	Sulfhydryl oxidase 1 (Homo sapiens)	%	-2
N=C(N)c1ccccc1	Sulfhydryl oxidase 1 (Homo sapiens)	%	-3.7
CCN1CCC[C@H]1CNC(=O)c1cc(S(N)(=O)=O)ccc1OC	Sulfhydryl oxidase 1 (Homo sapiens)	%	-1.2
NC1CCN(O)C1=O (stereo unspecified)	Sulfhydryl oxidase 1 (Homo sapiens)	%	1.1
Cc1nc2ccccn2c(=O)c1CCN1CCC(C(=O)c2ccc(F)cc2)CC1	Sulfhydryl oxidase 1 (Homo sapiens)	%	-1.4

Would you be so kind as to report inhibition for each listed record?
1. CCN1CCC[C@H]1CNC(=O)c1c(O)c(Cl)cc(Cl)c1OC
2. Cn1cc(C2=C(c3ccc(Cl)cc3Cl)C(=O)NC2=O)c2ccccc21

[2.3, -1.7]

###

- SYSTEM NAME: Sulfhydryl oxidase 1 (Homo sapiens) (UniProt O00391)
- TEST: QSOX1 enzyme inhibitors, primary screen, biochemical, ROS-Glo H2O2 luminescence, HTS (AID 1347418)
- RUN CONDITIONS: recombinant QSOX1, ROS-Glo H2O2 luminescence; at 12.5 µM; active compounds read high; active = any value above zero
The whole screen tested about 1,300 compounds, of which about 750 (58%) were called active. The list shows a part of the results.
Respond only with the outcome that fits, drawn from T (active), F (inactive)

MOLECULE	DISCRETE LABEL
NC(=O)OCC(COC(N)=O)c1ccccc1	T

Check the results log: what was the call for CCOC(=O)c1cnc2c(cnn2CC)c1NN=C(C)C ?
T

Check the results log: what was the call for CN(C)CCCN1c2ccccc2Sc2ccc(C(F)(F)F)cc21 ?
T

I'd appreciate the recorded outcome for C[C@]12C=CC(=O)C=C1CC[C@H]1[C@@H]3C[C@@H](O)[C@](O)(C(=O)CO)[C@@]3(C)C[C@H](O)[C@@]12F from this test.
F

Called result for Cc1ccc(O)c(N=Nc2ccccc2)n1
T

Hello, I am checking results. What call was entered for CCCC1O[C@@H]2C[C@H]3[C@@H]4CCC5=CC(=O)C=C[C@]5(C)[C@H]4[C@@H](O)C[C@]3(C)[C@]2(C(=O)CO)O1 (some centres undefined) ?
F

What call does the record list for CCCNCC(O)COc1ccccc1C(=O)CCc1ccccc1 (centres undefined) ?
F

GET /call?item= NOCC(=O)O returns the recorded outcome of this test.
F

Outcome logged for NC12CC3CC(CC(C3)C1)C2 in this assay:
F

Called result for CN1Cc2c(N)cccc2C(c2ccccc2)C1 (centres undefined)
T

Fill in: this test's call for CCCCCN(CCCCC)C(=O)C(CCC(=O)O)NC(=O)c1ccc(Cl)c(Cl)c1 (centres undefined) is ___
T

Tell me the recorded outcome of this test for O=C(O)CCc1nc(-c2ccccc2)c(-c2ccccc2)o1 .
T

Could you please tell me the result logged for CC(C)(Oc1ccc(C2CC2(Cl)Cl)cc1)C(=O)O (centres undefined) in this assay?
T

Which outcome was entered for the molecule CNc1ncnc2c1ncn2[C@H]1C[C@H](OP(=O)(O)O)[C@@H](COP(=O)(O)O)O1 in this test?
F

Which outcome was assigned to Cc1cc(NC2CCCCC2)nc(-n2nc(C)cc2C)n1 in this test?
T

Which result was noted for this molecule in the test: CN(C)CCCN1c2ccccc2Sc2ccccc21
T

How was CC(C)NCC(O)c1ccc(NS(C)(=O)=O)cc1 (centres undefined) classified in this test?
F

# fetch the recorded call for CN(C)c1nc2c(Br)c(Br)c(Br)c(Br)c2[nH]1 here
T

Short answer needed: outcome of this test for CCOC(=O)C(C)(C)Oc1ccc(Cl)cc1 ?
F

###

What inhibition was measured for each of the following?
- SYSTEM NAME: Sulfhydryl oxidase 1 (Homo sapiens)
- TEST: QSOX1 enzyme inhibitors, primary screen, biochemical, ROS-Glo H2O2 luminescence, HTS (AID 1347418)
- RUN CONDITIONS: recombinant QSOX1, ROS-Glo H2O2 luminescence; at 12.5 µM; active compounds read high; active = any value above zero
Hit rate of the full screen: of about 1,300 compounds, about 750 (58%) were called active. The list shows a part of the results.
Give bare numbers, in %.

MOLECULE	inhibition / %
CCCn1c(=O)c2[nH]c(-c3ccc(OCC(=O)NCCN)cc3)nc2n(CCC)c1=O	0.5

# return inhibition for each item in the list
1. Cc1ccc(/C(=C\CN2CCCC2)c2ccccn2)cc1
2. CC#C[C@]1(O)CC[C@H]2[C@@H]3CCC4=CC(=O)CCC4=C3[C@@H](c3ccc(N(C)C)cc3)C[C@@]21C
3. CCCn1c(=O)c2[nH]c(-c3ccc(S(=O)(=O)O)cc3)nc2n(CCC)c1=O

1: -2.5; 2: 29.9; 3: -0.7

For each of the items listed, what is its inhibition?
1. Brc1c(Br)c(Br)c2[nH]cnc2c1Br
2. c1ccc2c(c1)CCCC2C1=NCCN1 (configuration not stated)

[3.9, -3.7]

###

- SYSTEM NAME: Sulfhydryl oxidase 1 (Homo sapiens) (UniProt O00391)
- TEST: QSOX1 enzyme inhibitors, primary screen, biochemical, ROS-Glo H2O2 luminescence, HTS (AID 1347418)
- RUN CONDITIONS: recombinant QSOX1, ROS-Glo H2O2 luminescence; at 12.5 µM; active compounds read high; active = any value above zero
In all, about 1,300 compounds went through this assay and about 750 (58%) were called active. Some of the results follow.
Mark one answer only. Choices: active, inactive

MOLECULE	DISCRETE LABEL
OC[C@H]1NC[C@@H](O)[C@@H]1O	active

Tell me the assay call for CCCCC1C(=O)N(c2ccccc2)N(c2ccccc2)C1=O please.
inactive

Hi team, can someone confirm the assay call for C=C[C@H]1CN2CC[C@@H]1C[C@H]2[C@@H](O)c1ccnc2ccc(OC)cc12 ?
inactive

What call does the record list for OCC1NCC(O)C(O)C1O (stereo not drawn) ?
active

Hey, what did the test say about COc1ccc2c(c1)c(CC(=O)O)c(C)n2C(=O)c1ccccc1 ?
inactive
